assay: Compound cerebrospinal fluid levels in mice (mass spectroscopy); type: in vivo, C57BL/6 mice; conditions: C57BL/6, mouse, cerebrospinal fluid, subcutaneous, 50 mg/mL solution infused at 0.5 μL/hour by Alzet mini-pump; 16.5-month-old old group; mass spectroscopy; read-out: level of Compound 1 in CSF
observed.property: concentration at 4 weeks

Could you please provide reported concentration at 4 weeks for Cc1cc(C(=O)N(C)C)cc(NC(=O)[C@H]2CCC(=O)N2C2CCN(Cc3ccc(Cl)c(C)c3)CC2)n1 ? Thanks!
< 10 nM

====

test: Pharmacokinetic profile after P.O. dosing (plasma concentration); format: in vivo; conditions: mouse, 30 mg/kg oral gavage, male 2-month-old C57Bl/6 mice, for 8 hours, read-out: plasma concentration of Compound 1 maintained for 8 hours
observed.property: concentration at 8 hours

Could you please provide reported concentration at 8 hours for Cc1cc(C(=O)N(C)C)cc(NC(=O)[C@H]2CCC(=O)N2C2CCN(Cc3ccc(Cl)c(C)c3)CC2)n1 ? Thanks!
> 100 nM
